experiment: self-splicing fitness, log relative to wild type (ln ratio); higher = more splicing; Tetrahymena group I intron in knt gene, E. coli kanamycin selection, DiMSum; sequences stand for … in CUCUCU…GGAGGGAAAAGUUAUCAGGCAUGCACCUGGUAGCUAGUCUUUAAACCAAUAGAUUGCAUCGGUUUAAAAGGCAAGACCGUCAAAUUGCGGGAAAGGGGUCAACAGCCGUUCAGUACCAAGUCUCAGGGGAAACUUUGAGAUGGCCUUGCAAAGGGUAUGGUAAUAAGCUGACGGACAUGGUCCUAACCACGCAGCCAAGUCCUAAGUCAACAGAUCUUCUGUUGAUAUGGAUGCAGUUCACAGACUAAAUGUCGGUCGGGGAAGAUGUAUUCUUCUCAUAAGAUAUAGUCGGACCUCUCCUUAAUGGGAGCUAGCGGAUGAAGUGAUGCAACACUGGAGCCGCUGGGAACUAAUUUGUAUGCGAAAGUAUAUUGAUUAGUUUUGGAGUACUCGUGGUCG; settings: 30 °C;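 also: selection with 25 µg/mL kanamycin versus none on LB agar overnight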
Observation type: self-splicing fitness (ln)
I only need the number, thanks.

Quick note, self-splicing fitness (ln) for `AUUAAGCAAUAUUACGACCG` landed at -1.51

Quick note, self-splicing fitness (ln) for `GAGGAGCAAUAUUACGCGUU` landed at -3.99

Consider `AUGUAGCAAUAUUACGAAUU` . Its measured self-splicing fitness (ln) is -2

get_value(item= `GGCGAGCAAUAUUACGACGC` , readout=self-splicing fitness (ln)) returns -1.89

Note to self: self-splicing fitness (ln) recorded for `GGUAAGCAAUAUUACGUUUC` was -3.52

According to the records, this sequence `UUCAAGCAAUAUUACGCUGC` displays self-splicing fitness (ln) of -2.71

self-splicing fitness (ln) reading for `AACCAGCAAUAUUACGACUU` : 0.018

According to the records, this sequence `UAUUAGCAAUAUUACGUCGU` displays self-splicing fitness (ln) of -2.82

Just so you know, measured self-splicing fitness (ln) for `GCCCAGCAAUAUUACGGAAA` came out at -0.768

Note to self: self-splicing fitness (ln) recorded for `CAAAAGCAAUAUUACGCCAG` was -0.849

Lab note: `AGUUAGCAAUAUUACGUAUA` gave self-splicing fitness (ln) of -3.01

`CGCCAGCAAUAUUACGGGGG` has a reported self-splicing fitness (ln) of -3

====

test: self-splicing fitness, log relative to wild type (ln ratio); higher = more splicing; Tetrahymena group I intron in knt gene, E. coli kanamycin selection, DiMSum; sequences stand for … in CUCUCU…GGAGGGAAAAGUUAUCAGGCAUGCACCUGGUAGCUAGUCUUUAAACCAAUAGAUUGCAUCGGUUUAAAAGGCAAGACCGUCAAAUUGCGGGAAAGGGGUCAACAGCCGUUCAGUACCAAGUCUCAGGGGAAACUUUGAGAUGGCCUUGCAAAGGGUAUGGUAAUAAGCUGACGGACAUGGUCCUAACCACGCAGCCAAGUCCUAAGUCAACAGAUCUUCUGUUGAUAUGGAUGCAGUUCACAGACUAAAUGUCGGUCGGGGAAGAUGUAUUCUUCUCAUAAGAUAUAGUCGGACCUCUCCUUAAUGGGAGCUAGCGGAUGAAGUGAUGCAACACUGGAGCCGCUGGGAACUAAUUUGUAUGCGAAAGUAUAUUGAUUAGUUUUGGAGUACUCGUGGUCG; settings: 37 °C
For each record, write down the corresponding self-splicing fitness (ln).
Lab note: jot down the number only; don't add units.

The recorded self-splicing fitness (ln) for entry `GCGGAGCAAUAUUACGGGUA` equals -1.72

Measured self-splicing fitness (ln), `UAUGAGCAAUAUUACGAGAC` : -2.4

For record `ACUGAGCAAUAUUACGCUGC` the listed self-splicing fitness (ln) is -1.98

Measured self-splicing fitness (ln) of `UUCAAGCAAUAUUACGUCAU` : -2.59

Summary for this sequence, `UGGAAGCAAUAUUACGAGCG` : self-splicing fitness (ln) is 0.127

# self-splicing fitness (ln) of `GCCGAGCAAUAUUACGUUUU` = -1.75

// sample `GCCCAGCAAUAUUACGCCAA` , its self-splicing fitness (ln) was -1.71

For reference, reported self-splicing fitness (ln) for `UUAGAGCAAUAUUACGAAGU` stands at -1.98

Entry `GUUCAGCAAUAUUACGUUUA` — recorded self-splicing fitness (ln) = -0.233

self-splicing fitness (ln) reported for this sequence `GCCGAGCAAUAUUACGACUC` : 0.198

# self-splicing fitness (ln) (sequence: `UUGCAGCAAUAUUACGCACG` ) is -1.24

Form: sequence = `GUCUAGCAAUAUUACGAGGU` ; self-splicing fitness (ln) = -1.99

Sure, the documented self-splicing fitness (ln) for `UAAGAGCAAUAUUACGCAUG` is -1.2

Documented self-splicing fitness (ln) of `GUAGAGCAAUAUUACGCCUU` : 0.0599

So, `AUACAGCAAUAUUACGAUCG` ? Its self-splicing fitness (ln) was -0.839

Per the records, this sequence ( `CAGGAGCAAUAUUACGAGCC` ) has self-splicing fitness (ln) equal to -2.44

The measured self-splicing fitness (ln) associated with `AGCUAGCAAUAUUACGGCCU` reads -0.106

self-splicing fitness (ln) in this record for `UUAAAGCAAUAUUACGGUCU` : -0.3

Notebook: `ACCGAGCAAUAUUACGGCUC` , self-splicing fitness (ln) read as -1.54

Looking up `ACCUAGCAAUAUUACGGAAG` , I found its self-splicing fitness (ln) recorded as -2.38

Lab note: measured self-splicing fitness (ln) of `CCCCAGCAAUAUUACGUGCU` was -2.47

self-splicing fitness (ln) reading for `UAACAGCAAUAUUACGUUCC` : -2.28

Entry under test: `AAGAAGCAAUAUUACGGGCA` . Its self-splicing fitness (ln) was -0.225

Documented self-splicing fitness (ln) of `CUUGAGCAAUAUUACGGCAC` : -2.71

Lookup result for `CUGAAGCAAUAUUACGAAGG` ; measured self-splicing fitness (ln): -1.38

Recorded result, `UUGGAGCAAUAUUACGCACG` , self-splicing fitness (ln): -1.92

Form: sequence = `GAGGAGCAAUAUUACGGACU` ; self-splicing fitness (ln) = -1.22

# sequence `GCGCAGCAAUAUUACGCUCU` ; its self-splicing fitness (ln) = -1.29

get_value(item= `GCCGAGCAAUAUUACGGUAC` , readout=self-splicing fitness (ln)) returns -0.908

====

experiment: self-splicing fitness, log relative to wild type (ln ratio); higher = more splicing; Tetrahymena group I intron in knt gene, E. coli kanamycin selection, DiMSum; sequences stand for … in CUCUCU…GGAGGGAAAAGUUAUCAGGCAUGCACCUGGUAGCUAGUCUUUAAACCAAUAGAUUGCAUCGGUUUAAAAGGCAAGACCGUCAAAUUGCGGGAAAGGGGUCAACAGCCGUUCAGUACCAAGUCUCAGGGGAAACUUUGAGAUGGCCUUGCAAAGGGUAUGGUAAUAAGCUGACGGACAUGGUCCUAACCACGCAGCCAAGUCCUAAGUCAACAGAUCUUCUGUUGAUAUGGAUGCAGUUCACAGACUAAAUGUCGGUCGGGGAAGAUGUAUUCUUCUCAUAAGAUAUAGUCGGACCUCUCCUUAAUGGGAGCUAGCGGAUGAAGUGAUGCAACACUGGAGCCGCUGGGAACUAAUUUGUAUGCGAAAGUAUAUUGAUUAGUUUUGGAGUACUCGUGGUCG; conditions: 30 °C
I'd appreciate it if you could supply self-splicing fitness (ln) values for the items below.
Answer field: number only, no words.

self-splicing fitness (ln) recorded for this sequence, `GGCUAGCAAUAUUACGGAUG` , is -0.642

What the record says about `UCGAAGCAAUAUUACGGCAC` : self-splicing fitness (ln) is -1.74

GET /value?item= `CAGGAGCAAUAUUACGCUCU` &field=self-splicing fitness (ln) returns -3.36

Sure, the documented self-splicing fitness (ln) for `UGAAAGCAAUAUUACGUCUA` is -0.288

# sequence `GCCGAGCAAUAUUACGCUGU` ; its self-splicing fitness (ln) = -2.17

Note to self: self-splicing fitness (ln) recorded for `GCAAAGCAAUAUUACGCCAG` was -2.38

Short answer for `GAUGAGCAAUAUUACGAGCG` : self-splicing fitness (ln) was -2.62

====

assay: self-splicing fitness, log relative to wild type (ln ratio); higher = more splicing; Tetrahymena group I intron in knt gene, E. coli kanamycin selection, DiMSum; sequences stand for … in CUCUCU…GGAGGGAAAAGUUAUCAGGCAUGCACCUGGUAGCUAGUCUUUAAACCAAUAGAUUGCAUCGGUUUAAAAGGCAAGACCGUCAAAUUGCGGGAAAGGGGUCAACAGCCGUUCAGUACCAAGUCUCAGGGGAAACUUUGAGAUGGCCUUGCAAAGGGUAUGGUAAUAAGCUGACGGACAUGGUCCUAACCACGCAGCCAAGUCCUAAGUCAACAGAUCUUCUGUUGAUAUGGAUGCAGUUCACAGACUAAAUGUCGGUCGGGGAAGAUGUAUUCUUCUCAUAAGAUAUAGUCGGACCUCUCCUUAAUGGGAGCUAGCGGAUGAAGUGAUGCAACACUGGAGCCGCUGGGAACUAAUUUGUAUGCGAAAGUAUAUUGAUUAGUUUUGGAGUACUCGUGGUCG; conditions: 30 °C
For each record, write down the corresponding self-splicing fitness (ln).

Value of self-splicing fitness (ln) reported for the sequence `AAUGAGCAAUAUUACGGGCU` is -2.51

response.value for `UAAAAGCAAUAUUACGGCCG` (field: self-splicing fitness (ln)) = 0.132

Value of measured self-splicing fitness (ln) for the entry `UUCCAGCAAUAUUACGCGAC` : -3.35

Looking up `UUCAAGCAAUAUUACGCUUA` , I see its self-splicing fitness (ln) listed as -1.32

Lab book: self-splicing fitness (ln) of `CAUAAGCAAUAUUACGAGAG` noted as -2.88

self-splicing fitness (ln) for `AUUGAGCAAUAUUACGUCAA` is -3.05

Field self-splicing fitness (ln) (entry `CUAGAGCAAUAUUACGCGUA` ) reads -3.78

self-splicing fitness (ln) reading for `CUGCAGCAAUAUUACGUCAC` : -3.39

// self-splicing fitness (ln) lookup, sequence = `AUAAAGCAAUAUUACGCCUU` , result: -0.274

Sample `CCCAAGCAAUAUUACGUCCC` ; self-splicing fitness (ln) observed: -3.35

Value source: the supplement of paper PMC7877785
